ASSAYED_SYSTEM: Potassium voltage-gated channel subfamily KQT member 1 (Homo sapiens) (UniProt P51787)
Sequence (P51787 whole entry, looked up): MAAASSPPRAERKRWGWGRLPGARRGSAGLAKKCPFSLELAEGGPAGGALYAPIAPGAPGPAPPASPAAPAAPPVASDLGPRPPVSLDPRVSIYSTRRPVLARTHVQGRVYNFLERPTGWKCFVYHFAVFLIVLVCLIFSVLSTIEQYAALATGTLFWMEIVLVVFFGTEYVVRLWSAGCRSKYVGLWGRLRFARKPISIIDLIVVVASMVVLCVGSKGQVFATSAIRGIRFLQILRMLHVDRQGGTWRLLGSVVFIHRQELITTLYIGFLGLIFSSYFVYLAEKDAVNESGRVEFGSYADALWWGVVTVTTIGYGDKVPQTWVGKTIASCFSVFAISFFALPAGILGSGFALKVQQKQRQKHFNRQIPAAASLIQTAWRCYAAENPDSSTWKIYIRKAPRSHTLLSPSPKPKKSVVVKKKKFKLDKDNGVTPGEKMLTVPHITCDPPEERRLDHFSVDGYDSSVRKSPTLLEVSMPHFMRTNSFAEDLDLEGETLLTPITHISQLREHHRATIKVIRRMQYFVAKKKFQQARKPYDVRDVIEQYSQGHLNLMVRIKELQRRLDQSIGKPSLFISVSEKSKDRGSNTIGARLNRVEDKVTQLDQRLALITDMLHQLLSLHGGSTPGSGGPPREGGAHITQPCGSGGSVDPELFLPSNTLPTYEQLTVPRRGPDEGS
MEASUREMENT_PROTOCOL: KCNQ1 potassium channel potentiators, confirmation, FluxOR thallium flux, CHO cells, duplicates (AID 493007)
CONDITIONS_USED: KCNQ1 cell line, FluxOR thallium flux fluorescence, at 10 µM, % of reference activator effect, buffer zero
Activity calls are given as the source filed them.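 The calls were made as follows: active = potentiation averaged over duplicate wells exceeding buffer-only control mean by more than 3 SD; inactive = the rest.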
Labels: active, inactive

CCCCOC(=O)c1ccc(NC(=S)NC(=O)c2c(Cl)cnn2C)cc1: active
O=C(c1ccccn1)c1ncc(C(F)(F)F)cc1Cl: inactive
ON/C=N/C(=S)Nc1ncc(C(F)(F)F)cc1Cl: active
CCOc1ccc(C(=O)NC(=S)N(Cc2ccccc2)Cc2ccccc2)cc1: active
COc1ccc(C)cc1-n1c(SCC(=O)Nc2cc(C)on2)nc2ccccc2c1=O: inactive
COCCCN1C(=O)C(=O)/C(=C(/O)c2ccc(C)cc2)C1c1ccccc1 (stereo unspecified): inactive
O=C(NCc1ccccc1)C(=O)Nc1nc(C23CC4CC(CC(C4)C2)C3)cs1: inactive
COc1ccc(OCCCC(=O)NNC(=O)CCN2CCN(c3ccccc3)CC2)cc1: active
Cc1[nH]n2c(=O)cc(C(C)(C)C)nc2c1-c1ccccc1: active
COc1ccc(OC)c(NC(=S)NC(=O)c2ccc(Br)o2)c1: inactive
Cc1ccc(C)c(N2CCN(C(=O)CCS(=O)(=O)c3ccc4c(c3)NC(=O)CO4)CC2)c1: inactive
